Test system: Calu-3
Experiment: cell viability relative to DMSO; higher = less toxic
Settings: 72 h; 100 nM
Property: cell viability (%)
Numbers only; they are read as %.

Fill in: cell viability of "CNC(=O)[C@@H](c1ccccc1)N1CCc2cc(OC)c(OC)cc2[C@@H]1CCc1ccc(C(F)(F)F)cc1" is ___
94.4

// cell viability lookup, key: "CCOC(=O)[C@@H](C)Oc1ccc(Oc2nc3ccc(Cl)cc3o2)cc1"
113

Given "COc1ccc(CCNCc2ccc(OCc3ccc(Cl)nc3)c(OC)c2)cc1OC" , state its recorded cell viability.
93.3

cell viability lookup needed for CC(C)C(=O)SCCCCC[C@H](NC(=O)OC(C)(C)C)C(=O)NC12CC3CC(CC(C3)C1)C2 [TCS-HDAC6-20b] , thanks.
95.6
